# Tested on: Mycobacterium tuberculosis
# assay.notes: Antimycobacterial activity against Mycobacterium tuberculosis H37Rv ATCC 27294 after 7 days by microplate Alamar blue assay
# Type: functional, organism-based
# experimental.conditions: H37Rv ATCC 27294, 168 h
Documented IC50 across a set of compounds
Numbers only; they are read as µg/mL.

input.smiles: N[C@@H]1CONC1=O
test.system: Mycobacterium tuberculosis
property.label: IC50
assay.result: 12.5

Q. I am curious: what IC50 value has been reported for CCOC(=O)c1cc(C#N)n2ccc(-c3ccncc3)cc12 ?
A. 33.4

* * *

# assay.notes: Cytotoxicity against mouse J774A1 cells assessed as cell viability at 1 ug/ml after 7 days by MTT assay relative to control
# Assay type: cell-based, J774.A1
# experimental.conditions: read-out: Activity
property.label: viability at 168 h, 1 ug/ml (%)
Numbers only; they are read as %.

Q. I am curious: what viability at 168 h, 1 ug/ml value has been reported for CO[C@H]1/C=C/O[C@@]2(C)Oc3c(C)c(O)c4c(O)c(c(/C=N/N5CCN(C)CC5)c(O)c4c3C2=O)NC(=O)/C(C)=C\C=C\[C@H](C)[C@H](O)[C@@H](C)[C@@H](O)[C@@H](C)[C@H](OC(C)=O)[C@@H]1C [RIFAMPIN] ?
A. 85

* * *

# Test system: Mycobacterium tuberculosis
# assay.notes: Antimycobacterial activity against Mycobacterium tuberculosis H37Rv ATCC 27294 at 100 ug/ml after 7 days by microplate Alamar blue assay relative to control
# Type: functional
# experimental.conditions: H37Rv ATCC 27294, 168 h
property.label: inhibition at 100 µg/mL (%)
Numbers only; they are read as %.

Worked set:
compound: CCOC(=O)c1cc(C(=O)c2ccccc2)n2ccc(-c3ccn4c(C(=O)c5ccc(OC)cc5)cc(C(=O)OC)c4c3)cc12
inhibition at 100 µg/mL [%]: -4.5
--
compound: N[C@@H]1CONC1=O [CYCLOSERINE]
inhibition at 100 µg/mL [%]: 97.7
--
compound: CCOC(=O)c1cc(C(N)=O)n2ccc(-c3ccncc3)cc12
inhibition at 100 µg/mL [%]: -17
--
compound: CCOC(=O)c1cc(C(=O)c2ccccc2)n2ccc(-c3ccncc3)cc12
inhibition at 100 µg/mL [%]: -8.6
--
compound: CCOC(=O)c1cc(C#N)n2ccc(-c3ccncc3)cc12
inhibition at 100 µg/mL [%]: 97.2
--
compound: CC[C@@H](CO)NCCN[C@@H](CC)CO [ETHAMBUTOL]
inhibition at 100 µg/mL [%]: 90

Next compound, inhibition at 100 µg/mL to be filled in.
Q. I am curious: what inhibition at 100 µg/mL value has been reported for CCc1nc(N)nc(N)c1-c1ccc(Cl)cc1 [PYRIMETHAMINE] ?
A. 95.6

* * *

# System: Mycobacterium tuberculosis
# assay.notes: Antimycobacterial activity against Mycobacterium tuberculosis H37Rv ATCC 27294 after 7 days by microplate Alamar blue assay
# Assay type: functional, organism-based
# experimental.conditions: H37Rv ATCC 27294, 168 h
property.label: IC50 (µg/mL)
Numbers only; they are read as µg/mL.

compound: NNC(=O)c1ccncc1 [ISONIAZID]
IC50 [µg/mL]: 0.18
//
compound: NCC[C@H](O)C(=O)N[C@@H]1C[C@H](N)[C@@H](O[C@H]2O[C@H](CN)[C@@H](O)[C@H](O)[C@H]2O)[C@H](O)[C@H]1O[C@H]1O[C@H](CO)[C@@H](O)[C@H](N)[C@H]1O [AMIKACIN]
IC50 [µg/mL]: 0.07
//
compound: CCOC(=O)c1cc(C(=O)c2ccccc2)n2ccc(-c3cc[n+](CC(=O)c4ccc(OC)cc4)cc3)cc12.[Br-]
IC50 [µg/mL]: 3.88
//
compound: CCc1nc(N)nc(N)c1-c1ccc(Cl)cc1 [PYRIMETHAMINE]
IC50 [µg/mL]: 37.4

Next compound, IC50 to be filled in.
Q. Mycobacterium tuberculosis / IC50 / CO[C@H]1/C=C/O[C@@]2(C)Oc3c(C)c(O)c4c(O)c(c(/C=N/N5CCN(C)CC5)c(O)c4c3C2=O)NC(=O)/C(C)=C\C=C\[C@H](C)[C@H](O)[C@@H](C)[C@@H](O)[C@@H](C)[C@H](OC(C)=O)[C@@H]1C [RIFAMPIN] : value?
A. 0.02
